These data points were gathered from ChEMBL document CHEMBL3751731.

Record type: pIC50 measurement. Applies to: Acetylcholinesterase (Electrophorus electricus, UniProt O42275)
Worth noting: pIC50 values are minus log10 of concentrations stated in mol/L.

get_value(item= `COc1ccc2c(c1)[nH]c1cccc(CN(C(=O)/C=C/c3ccc(O)c(OC)c3)C(C)C)c12` , readout=pIC50) returns 4.24

get_value(item= `CCNCc1cccc2[nH]c3cc(Cl)ccc3c12` , readout=pIC50) returns 5.68

Next:
get_value(item= `CCN(Cc1cccc2[nH]c3ccccc3c12)C(=O)/C=C/c1ccc(O)c(OC)c1` , readout=pIC50) returns 4.74

###

assay: Antioxidant activity assessed as DPPH radical scavenging activity at 10 uM after 4 hrs by UV spectrophotometric analysis; type: physicochemical
Endpoint label: Activity
Please answer using a numeric value trailed by its unit.

Worked cases, answers included:
get_value(item= `COc1ccc2c(c1)[nH]c1cccc(CN(C(=O)/C=C/c3ccc(O)c(OC)c3)C3CCCC3)c12` , readout=Activity) returns 67.4%

get_value(item= `COc1cc(/C=C/C(=O)N(Cc2cccc3[nH]c4ccccc4c23)C2CCCC2)ccc1O` , readout=Activity) returns 66.6%

get_value(item= `COc1ccc2c(c1)[nH]c1cccc(CN(C(=O)/C=C/c3ccc(O)c(OC)c3)C(C)C)c12` , readout=Activity) returns 68.2%

get_value(item= COc1cc(/C=C/C(=O)O)ccc1O [FERULATE] , readout=Activity) returns 63.1%

get_value(item= `CCN(Cc1cccc2[nH]c3cc(Cl)ccc3c12)C(=O)/C=C/c1ccc(O)c(OC)c1` , readout=Activity) returns 66%

get_value(item= `COc1cc(/C=C/C(=O)N(Cc2cccc3[nH]c4ccccc4c23)C(C)C)ccc1O` , readout=Activity) returns 68.9%

get_value(item= `COc1cc(/C=C/C(=O)N(Cc2cccc3[nH]c4ccccc4c23)C2CCCCC2)ccc1O` , readout=Activity) returns 63.1%

get_value(item= `CCN(Cc1cccc2[nH]c3ccccc3c12)C(=O)/C=C/c1ccc(O)c(OC)c1` , readout=Activity) returns 55%

get_value(item= `COc1ccc2c(c1)[nH]c1cccc(CN(C(=O)/C=C/c3ccc(O)c(OC)c3)C3CCCCC3)c12` , readout=Activity) returns 50.9%

As a next step, examine the molecule that follows.
get_value(item= `CCN(Cc1cccc2[nH]c3cc(OC)ccc3c12)C(=O)/C=C/c1ccc(O)c(OC)c1` , readout=Activity) returns 71.3%
